Listed here: items and their measured TGI.
- System: LOX IMVI melanoma
- TEST_SUMMARY: NCI tumour cell line growth inhibition, 48 h
QUANTITY_MEASURED: TGI (µM)

1. COc1ccc(S(=O)(=O)Nc2c(/C=C\c3cc(OC)c(OC)c(OC)c3)ccc(OC)c2O)cc1 :: 49.1
2. Clc1cccc(CNc2c3ccccc3nc3ccccc23)c1 :: 3.08
3. O=C1C=C(OCC=C(C(F)(F)F)C(F)(F)F)c2ccccc2C1=O :: 3.46
4. CCCCCCCCCCCCN=C(N)c1ccc(N2CCN(c3ccc(C(N)=NCCCCCCCCCCCC)cc3)CC2)cc1 :: 23
5. CCC1(CC)N=C(C(F)(F)F)c2cc(C(=O)C(F)(F)F)c3ccccc3c2N1 :: 13.7
